Origin of values: patent US20250066456A1

system-under-test: BV2541 (recombinant CoV S glycoprotein, BA.4) (SARS-CoV-2, UniProt P0DTC2 14-1273)
protocol: hACE2 receptor inhibition ELISA on coated rS; competitor hACE2-His
Each entry below carries its reported IC50.
value-type: IC50 (µg/mL)

{"binder": "239.12 (antibody, V domains shown) VH: EVKLEESGPVLVKPSQSLSLTCTVTGYSITSDYAWNWIRQFPGNKLEWMGYISNSAGTSYNPSLKSRISITRDTSKNQFFLQLNSVTTEDTATYYCASGGWSSYYAMDYWGQGTSVTVSS VL: DIQMTQSPASLSASVGETVTITCGASENIYGALNWYQRKQGKSPQLLIYGATNLADGMSSRFSGSGSGRQYSLKISSLHPDDVATYYCQNVLSTPYTFGGGTKLEIKR", "result-unit": "µg/mL", "limit-sign": ">", "observed-result": 3}
{"binder": "35.13 (antibody, V domains shown) VH: QVQLQQSGAELGKPGASVKLSCRASGYTFTRYYIYWVKQRPGQGLEWIGEINPSNGDTHFNEKFKTKATLTVDKSSSSAHIHLTSLTSEDSAVYYCSIHAYSFDFWGQGTTLTVSS VL: EIQMTQSPSSMSASLGDRITITCQATQDIVKNLNWYQQKPGKPPSFLIYHATELAKGVPSRFSGSGSGSDYSLTISNLESEDFADYYCLQFYDFPFTFGAGTKLELKR", "result-unit": "µg/mL", "limit-sign": ">", "observed-result": 5}
{"binder": "322.3 (antibody, V domains shown) VH: RVQLQQSGPELVKPGASVTISCKASGYIFTSDYIHWVKQRPGQGPEWIGWIYPGNINTKYNEKFKGKATLTADKSSSTAYMQLSSLTSEDSAVYFCARDDGNLYYYAMDYWGQGTSVTVSS VL: NIVLTQSPASLAVSLGQRATISCRASESVDSYGSSFMHWYQQKPGQPPKLLIYLASNLESGVPARFSGSGSRTDFTLTIDPVEADDAATYYCQQNNEDPRTFGGGTKLEIK", "result-unit": "µg/mL", "limit-sign": "=", "observed-result": 0.543}
{"binder": "425.6 (antibody, V domains shown) VH: VQLKQSGPSLVQPSQSLSITCTVSGFSLTSYGIHWVRQSPGKGLEWLGVIWRGGSTDYNAAFMSRLTITKDNSKSQVFFKMNSLQADDTAIYYCATHTEGDDVDYWGQGTSVTVSS VL: QIVLTQSPAIMSVSPGEKVTMTCSASSTMSFMYWYQQKPGSSPRLLIYDTSNLASGVPVRFSGSGSGTSYSLTISRVEAEDAATYYCQQWNTYPLTFGAGTKLELKR", "result-unit": "µg/mL", "limit-sign": "=", "observed-result": 0.037}
